Would you mind telling me the reported morphology score of each entry?
system: Vero E6 infected with SARS-CoV-2; test: morphology score (similarity to uninfected cells); higher = more like uninfected cells; conditions: 24 h
Numbers only.

compound | morphology score
CN(C)CCCN1c2ccccc2Sc2ccc(C(F)(F)F)cc21 [triflupromazine] (10 µM) | 0.465
O=C(c1ccc(F)cc1)C1CCN(CCn2c(=O)[nH]c3ccccc3c2=O)CC1 [ketanserin] (10 µM) | 0.144
CCc1c(C(=O)NCCc2ccc(N3CCCCC3)cc2)[nH]c2ccc(Cl)cc12 (10 µM) | -0.0889

// recorded morphology score for CCS(=O)(=O)CCn1c([N+](=O)[O-])cnc1C [tinidazole] (10 µM) : 0.142

====

tested on: Vero E6 infected with SARS-CoV-2; experiment: inhibition of SARS-CoV-2 cytopathic effect; higher = more antiviral protection, active = above 15; conditions: 10000 nM; 48 h
readout: inhibition of SARS-CoV-2 cytopathic effect (%)
Give bare numbers, in %.

// solved cases for inhibition of SARS-CoV-2 cytopathic effect follow
compound | test-result
COCCNC(=O)Cn1cnc([N+](=O)[O-])n1 | -3
Cc1ccc(S(=O)(=O)N2CCC[C@H]2c2ccc(F)cc2)cc1 | 0.86
Fc1ccc(-c2c3cccc(C(F)(F)F)c3nn2Cc2ccc(F)cc2Cl)cc1 | 2.25
Nc1ncnc2c1ncn2[C@@H]1O[C@H](C[C@@H](N)CC[C@H](N)C(=O)O)[C@@H](O)[C@H]1O | -7.24

Could you report inhibition of SARS-CoV-2 cytopathic effect for every entry in the following list?
1. C/C(=N\NC(=O)[C@@H]1C(=O)NC[C@H]1c1ccccc1)c1cccc(Br)c1
2. Cc1ccc([N+](=O)[O-])cc1S(=O)(=O)N(C)C
3. C[C@]12CCC(=O)C[C@@H]1CC[C@@H]1[C@@H]2CC[C@]2(C)[C@@H](O)CC[C@@H]12 [Dihydrotestosterone]
4. O=C(O)C1=C(CSc2nnnn2CS(=O)(=O)O)CS[C@@H]2[C@H](NC(=O)[C@H](O)c3ccccc3)C(=O)N12 [Cefonicid (sodium)]
5. Cc1cc(/C=C2\SC(=O)N(c3ccccc3)C2=O)c(C)n1-c1cccnc1
6. CCCNC(C)C(=O)Nc1c(C)csc1C(=O)OC (centres undefined)
7. C[C@H](NC(=O)C(C)(C)Oc1ccc(C(F)(F)F)cn1)[C@@H](Cc1ccc(Cl)cc1)c1cccc(C#N)c1
8. O=c1[nH]c(=O)n([C@H]2CCCO2)cc1F (racemic)

[out]
1: -2.3; 2: -0.2; 3: -3.3; 4: 1.23; 5: 2.29; 6: -2.09; 7: -5.97; 8: -2.89

Could you report inhibition of SARS-CoV-2 cytopathic effect for every entry in the following list?
1. C1=Cc2cccc(OCC3CNCCO3)c2C1 (centres undefined)
2. Cc1nnsc1C(=O)Nc1ccc(-n2nc(C(F)(F)F)cc2C(F)(F)F)cc1
3. COc1ccc(-c2oc3c(CC=C(C)C)c(O[C@@H]4O[C@H](CO)[C@@H](O)[C@H](O)[C@H]4O)cc(O)c3c(=O)c2O[C@@H]2O[C@@H](C)[C@H](O)[C@@H](O)[C@H]2O)cc1
4. OCc1cncc(F)c1

[out]
-0.62
-10.5
-4.04
-2.94

Could you report inhibition of SARS-CoV-2 cytopathic effect for every entry in the following list?
1. Cc1ccccc1/N=N/c1ccc(/N=N/c2c(O)ccc3ccccc23)c(C)c1
2. C[C@H](Nc1ncnc2nc[nH]c12)c1cc2cccc(Cl)c2c(=O)n1-c1ccccc1
3. O=c1cccc2n1C[C@@H]1CNC[C@H]2C1
4. CCC1(C2=NCCN2)Cc2ccccc2O1 (centres undefined)
5. O=C(O)c1ccc(-c2c[nH]c3ncc(-c4ccccc4)cc23)cc1C1CCCC1
6. N[C@@H]1CONC1=O

[out]
-2.29
-3.79
-2.16
-3.79
-0.09
-3.61

Could you report inhibition of SARS-CoV-2 cytopathic effect for every entry in the following list?
1. CC[C@]1(O)C[C@H]2CN(CCc3c([nH]c4ccccc34)[C@@](C(=O)OC)(c3cc4c(cc3OC)N(C=O)[C@H]3[C@@](O)(C(=O)OC)[C@H](OC(C)=O)[C@]5(CC)C=CCN6CC[C@]43[C@@H]65)C2)C1 [Vincristine (sulfate)]
2. C#C[C@]1(O)CC[C@H]2[C@@H]3CCC4=CC(=O)CC[C@@H]4[C@H]3CC[C@@]21C
3. Cc1cc(Nc2nc(N[C@@H](C)c3ccc(F)cc3)c(C#N)cc2F)n[nH]1
4. Nc1nnc(-c2cccc(Cl)c2Cl)c(N)n1

[out]
[-0.29, 2.33, -13, 0.08]

Could you report inhibition of SARS-CoV-2 cytopathic effect for every entry in the following list?
1. CC(CNC1CCCCC1)OC(=O)c1ccccc1 (centres undefined)
2. COc1ccc(-c2ccc(=N)n(CCCC(=O)O)n2)cc1
3. c1ccc(-c2ccc(C(c3ccccc3)n3ccnc3)cc2)cc1 (centres undefined)

[out]
1: -2.93; 2: -0.62; 3: 15.4

====

test system: Vero E6 infected with SARS-CoV-2; assay: SARS-CoV-2 infection rate relative to infected DMSO; higher = more infection, active = 60 or less; details: 24 h
Would you mind telling me the reported SARS-CoV-2 infection rate of each entry?
Answers are plain numbers, in %.

// solved cases for SARS-CoV-2 infection rate follow
compound | SARS-CoV-2 infection rate [%]
NC(CO)C(=O)NNCc1ccc(O)c(O)c1O (stereo unspecified) [benserazide] (10 µM) | 96.5
Fc1ccc(Cl)cc1-c1nc(Nc2ccncc2)c2nccnc2n1 (10 µM) | 101
CNCCC(Oc1ccc(C(F)(F)F)cc1)c1ccccc1 (stereo unspecified) [fluoxetine] (10 µM) | 66
CCOc1ccccc1C(N)=O [ethenzamide] (10 µM) | 118
OC1=c2ccccc2=C(NC2CCCCC2)/C1=C\c1ccccc1 (0.833333 µM) | 85.5

Could you report SARS-CoV-2 infection rate for every entry in the following list?
1. O=C(O)c1cc(O)c(O)c(O)c1 [gallic-acid] (10 µM)
2. CCOC(=O)Nc1ccc2c(c1)N(C(=O)CN(CC)CC)c1ccccc1CC2 (10 µM)
3. NC[C@H]1O[C@H](O[C@H]2[C@H](O)[C@@H](O[C@H]3O[C@H](CO)[C@@H](O)[C@H](N)[C@H]3O)[C@H](N)C[C@@H]2N)[C@H](O)[C@@H](O)[C@@H]1O [kanamycin] (10 µM)

[out]
1. 110
2. 101
3. 100

Could you report SARS-CoV-2 infection rate for every entry in the following list?
1. C[N+]1(C)[C@@H]2CC[C@H]1C[C@@H](OC(=O)C(O)c1ccccc1)C2 (stereo partly specified) [homatropine-methylbromide] (10 µM)
2. CCOP(=S)(OCC)Oc1ccc2c(C)c(Cl)c(=O)oc2c1 [coumophos] (10 µM)

[out]
[104, 110]

Could you report SARS-CoV-2 infection rate for every entry in the following list?
1. COC(=O)N1CCN(Cc2cccc(NC(=O)Nc3ccc(C)nc3)c2F)CC1 [omecamtiv-mecarbil] (10 µM)
2. CCCCCCN(CCCCCC)C(=O)Cc1c(-c2ccc(Cl)cc2)[nH]c2ccc(Cl)cc12 (10 µM)
3. O=C([O-])CN1CCN(CC(=O)[O-])CCN([C@H](CO)[C@H](O)CO)CCN(CC(=O)[O-])CC1.[Gd+3] (racemic) [gadobutrol] (10 µM)
4. CO[C@H]1[C@H](O)[C@@H](O)[C@@H](O)[C@H](O)[C@@H]1O [pinitol] (10 µM)

[out]
1: 99; 2: 103; 3: 109; 4: 114

Could you report SARS-CoV-2 infection rate for every entry in the following list?
1. C=CCC1(CC(C)C)C(=O)NC(=O)NC1=O [butalbital] (10 µM)
2. c1ccc(C(NCCNC(c2ccccc2)c2ccccc2)c2ccccc2)cc1 (10 µM)
3. Cc1cc(OCCN2CCOCC2)nn1-c1ccc2ccccc2c1 (10 µM)
4. O=C1C(=O)N(Cc2ccc(Cl)c(Cl)c2)c2ccccc21 [apoptosis-activator-II] (10 µM)
5. Cc1cc(-c2ncc(CC(=O)Nc3ccc(-c4cnccn4)cn3)cc2C)ccn1 (10 µM)

[out]
1. 117
2. 101
3. 99.5
4. 104
5. 111

====

tested on: Vero E6 infected with SARS-CoV-2; experiment: SARS-CoV-2 infection rate relative to infected DMSO; higher = more infection, active = 60 or less; details: 24 h
readout: SARS-CoV-2 infection rate (%)
One number for each entry, in %.

compound | target-or-test-system | SARS-CoV-2 infection rate [%]
COc1ccc(S(=O)(=O)N2c3ccc(Cl)cc3[C@](O)(c3ccccc3Cl)[C@@H]2C(=O)N2CCC[C@H]2C(N)=O)cc1OC [relcovaptan] (10 µM) | Vero E6 infected with SARS-CoV-2 | 106
N=C(N)NC(=O)c1nc(Cl)c(N)nc1N [amiloride] (10 µM) | Vero E6 infected with SARS-CoV-2 | 98
C[C@]12CCC(=O)C=C1C=C[C@@H]1[C@@H]2CC[C@@]2(C)[C@H]1CC[C@@]2(O)CCC(=O)O [potassium-canrenoate] (10 µM) | Vero E6 infected with SARS-CoV-2 | 114
CN(C)Cc1ccc(-c2nc3cccc4c3n2CCNC4=O)cc1 (10 µM) | Vero E6 infected with SARS-CoV-2 | 97.5
COc1ccc2nc3c(c(N)c2c1)CCCC3 [7-methoxytacrine] (10 µM) | Vero E6 infected with SARS-CoV-2 | 64.5
N#CC(Cc1ccc(O)cc1)c1ccc(O)cc1 (centres undefined) [diarylpropionitrile] (10 µM) | Vero E6 infected with SARS-CoV-2 | 99
CCN(CC)C(=O)Nc1ccc(OCC(O)CNC(C)(C)C)c(C(C)=O)c1 (centres undefined) [celiprolol] (10 µM) | Vero E6 infected with SARS-CoV-2 | 96.5
NS(=O)(=O)c1cc(C(=O)O)c(NCc2ccco2)cc1Cl [furosemide] (10 µM) | Vero E6 infected with SARS-CoV-2 | 98

Could you report SARS-CoV-2 infection rate for every entry in the following list?
1. CC1=C(C(=O)OC2CCCCC2)C(c2ccc([N+](=O)[O-])cc2)C2=C(CC(C)(C)CC2=O)N1 (centres undefined) (0.833333 µM)
2. O=C1c2ccccc2C(Cc2ccnc(F)c2)(Cc2ccnc(F)c2)c2ccccc21 (10 µM)
3. CCCCCCCCOc1ccccc1C(=O)Nc1ccc(C(=O)OCC[N+](C)(CC)CC)cc1 [otilonium] (10 µM)

[out]
[104, 113, 101]
